# inhibition per entry
Target System: Protein kinase C iota type (Homo sapiens) (UniProt P41743)
Sequence (P41743 whole entry): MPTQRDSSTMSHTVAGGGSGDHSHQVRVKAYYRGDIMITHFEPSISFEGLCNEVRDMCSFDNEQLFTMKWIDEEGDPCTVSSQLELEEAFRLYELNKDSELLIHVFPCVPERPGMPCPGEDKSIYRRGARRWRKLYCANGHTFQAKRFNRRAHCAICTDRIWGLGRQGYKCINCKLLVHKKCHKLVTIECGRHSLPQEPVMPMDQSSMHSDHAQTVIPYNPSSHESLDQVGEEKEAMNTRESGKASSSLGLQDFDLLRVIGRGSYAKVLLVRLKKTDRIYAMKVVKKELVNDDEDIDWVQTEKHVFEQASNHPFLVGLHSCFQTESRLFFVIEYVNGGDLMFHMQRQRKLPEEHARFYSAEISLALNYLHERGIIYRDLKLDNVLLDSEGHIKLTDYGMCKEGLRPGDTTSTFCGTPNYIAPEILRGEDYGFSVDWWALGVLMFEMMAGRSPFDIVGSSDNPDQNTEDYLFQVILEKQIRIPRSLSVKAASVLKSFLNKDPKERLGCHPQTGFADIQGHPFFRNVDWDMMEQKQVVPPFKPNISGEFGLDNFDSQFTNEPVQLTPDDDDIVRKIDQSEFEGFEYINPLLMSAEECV
Condition Set: at 0.1 µM
Description: GSK_PKIS: PKC-iota mean inhibition at 0.1 uM [Nanosyn]

>  <Record Smiles>
Cc1ccc2c(-c3ccnc(Nc4ccc5c(c4)OCCO5)n3)c(-c3ccc(C(F)(F)F)cc3)nn2n1

>  <inhibition>
0.29%

$$$$
>  <Record Smiles>
Nc1nccc(C#Cc2cncnc2Nc2ccc(OCc3cccc(F)c3)c(Cl)c2)n1

>  <inhibition>
1.86%

$$$$
>  <Record Smiles>
Nc1nccc(-c2c(-c3ccc(F)cc3)ncn2CCCN2CCOCC2)n1

>  <inhibition>
3.1%

$$$$
>  <Record Smiles>
COC(=O)c1cncc(/C=C/c2c(C)cc(O)cc2C)c1

>  <inhibition>
2.79%

$$$$
>  <Record Smiles>
C[C@@H](Oc1cc(-n2cnc3ccc(OCC4CCN(C)CC4)cc32)sc1C(N)=O)c1ccccc1C(F)(F)F

>  <inhibition>
-1.38%

$$$$
>  <Record Smiles>
Cc1ccc(NC(=O)CC2CC2)cc1-c1ccc(C(=O)NCC2CC2)cc1

>  <inhibition>
0.93%

$$$$
>  <Record Smiles>
Cc1nc(-c2ccccc2)n2nc(NCCCN3CCOCC3)ncc12

>  <inhibition>
-0.08%

$$$$
>  <Record Smiles>
CCS(=O)(=O)c1ccc(OC)c(Nc2ncc(-c3cccc(OC)c3)o2)c1

>  <inhibition>
1.8%

$$$$
>  <Record Smiles>
O=C1Nc2ccccc2/C1=C/Nc1ccc2[nH]c(=O)[nH]c2c1

>  <inhibition>
1.72%

$$$$
>  <Record Smiles>
Cc1ccc2c(c1)/C(=N/Nc1ccc(S(N)(=O)=O)cc1)C(=O)N2

>  <inhibition>
-1.59%

$$$$

###

Target System: Dual specificity tyrosine-phosphorylation-regulated kinase 1B (Homo sapiens);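 also: values are mean percent inhibition of DYRK1B, from the GSK_PKIS set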
Condition Set: at 1 µM

>  <Record Smiles>
NS(=O)(=O)c1cccc(-c2cc3ccncc3cc2OCc2ccccc2)c1

>  <Unit>
%

>  <inhibition>
2.52

$$$$
>  <Record Smiles>
COC(=O)c1ccc2c(c1)C(=Cc1cc(Br)c(O)c(Br)c1)C(=O)N2

>  <Unit>
%

>  <inhibition>
53.5

$$$$
>  <Record Smiles>
C[C@@H](Oc1cc(-n2cnc3ccc(OC[C@@H](O)CO)cc32)sc1C(N)=O)c1ccccc1Cl

>  <Unit>
%

>  <inhibition>
2.69

$$$$
>  <Record Smiles>
O=S(=O)(CCOCc1ccc(-c2ccc3ncnc(Nc4ccc(OCc5cccc(F)c5)c(Cl)c4)c3c2)o1)c1ccccc1

>  <Unit>
%

>  <inhibition>
2.9

$$$$
>  <Record Smiles>
COc1cc2ncn(-c3cc(OCc4ccccc4S(C)(=O)=O)c(C#N)s3)c2cc1OC

>  <Unit>
%

>  <inhibition>
13.9

$$$$

###

Target System: Serine/threonine-protein kinase PAK 6 (Homo sapiens);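 also: values are mean percent inhibition of PAK6 kinase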
Condition Set: at 1 µM

>  <Record Smiles>
CS(=O)(=O)Nc1cccc(-c2ccc3c(NC(=O)C4CC4)n[nH]c3c2)c1

>  <Unit>
%

>  <inhibition>
-4.78

$$$$
>  <Record Smiles>
FC(F)(F)c1ccc(-c2nn3ncccc3c2-c2ccnc(Nc3ccc4c(c3)OCCO4)n2)cc1

>  <Unit>
%

>  <inhibition>
15.5

$$$$
>  <Record Smiles>
NC(=O)c1sc(-n2cnc3ccccc32)cc1OCc1ccccc1Br

>  <Unit>
%

>  <inhibition>
-4.72

$$$$
>  <Record Smiles>
CC(C)c1ccc2c(c1)NC(=O)/C2=N/Nc1ccc(S(N)(=O)=O)cc1

>  <Unit>
%

>  <inhibition>
-5.25

$$$$
>  <Record Smiles>
C[C@@H](Oc1cc(-n2cnc3ccc(OCC4CCN(C)CC4)cc32)sc1C(N)=O)c1ccccc1C(F)(F)F

>  <Unit>
%

>  <inhibition>
-0.65

$$$$
>  <Record Smiles>
CN(C)C(=O)O[C@@H]1CN[C@@H](C#Cc2cc3ncnc(Nc4ccc(OCc5cccc(F)c5)c(Cl)c4)c3s2)C1

>  <Unit>
%

>  <inhibition>
-6.9

$$$$
>  <Record Smiles>
COC(=O)Nc1nc2cc(Oc3ccc(NC(=O)Nc4cccc(Br)c4)cc3)ccc2[nH]1

>  <Unit>
%

>  <inhibition>
-4.46

$$$$
>  <Record Smiles>
Cc1cc(O)cc(C)c1/C=C/c1cncc(C(=O)N(C)C)c1

>  <Unit>
%

>  <inhibition>
-3.14

$$$$
>  <Record Smiles>
NS(=O)(=O)c1cccc(Nc2cc(-c3ccc(F)cc3)n[nH]2)c1

>  <Unit>
%

>  <inhibition>
13

$$$$
>  <Record Smiles>
c1ccc(Nc2ncc(-c3ccccc3)o2)cc1

>  <Unit>
%

>  <inhibition>
-5.22

$$$$
>  <Record Smiles>
CCn1c(-c2nonc2N)nc2ccc(F)cc21

>  <Unit>
%

>  <inhibition>
0.67

$$$$
>  <Record Smiles>
Cc1nc(-c2ccccc2)n2nc(NCCCN3CCOCC3)ncc12

>  <Unit>
%

>  <inhibition>
-7.1

$$$$
>  <Record Smiles>
CCS(=O)(=O)c1ccc(OC)c(Nc2nccc(N(C)c3ccc4c(C)n[nH]c4c3)n2)c1

>  <Unit>
%

>  <inhibition>
-6.63

$$$$
